Source listed as patent US20060258683A1.

# assay.system: UniProt Q07869
# Sequence (Q07869 239-466 limits assumed): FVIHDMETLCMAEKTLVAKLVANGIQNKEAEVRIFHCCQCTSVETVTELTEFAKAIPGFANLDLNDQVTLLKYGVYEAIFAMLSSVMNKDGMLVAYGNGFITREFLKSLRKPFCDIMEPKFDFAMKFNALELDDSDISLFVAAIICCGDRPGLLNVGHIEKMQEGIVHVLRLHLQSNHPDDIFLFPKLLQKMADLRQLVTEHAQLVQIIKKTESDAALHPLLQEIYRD
# test.description: PPAR-alpha EC50, functional cell (transactivation) assay
pEC50: −log10 of the molar value.
property.measured: pEC50

Look up pEC50 for the entries below, preserving their order.
1. Cc1cc(S(=O)(=O)N2CCN(C(=O)c3ccco3)CC2)ccc1OC(C)(C)C(=O)O
2. Cc1cc(S(=O)(=O)N2CCN(c3ccc(Cl)c(Cl)c3)CC2)ccc1OC(C)(C)C(=O)O
3. COc1ccc(N2CCN(S(=O)(=O)c3ccc(OC(C)(C)C(=O)O)c(C)c3)CC2)cc1OC

Reply:
["< 4.00", "4.00 to 6.00", "4.00 to 6.00"]

Look up pEC50 for the entries below, preserving their order.
1. Cc1ccc(C)c(N2CCN(S(=O)(=O)c3ccc(OC(C)(C)C(=O)O)c(C)c3)CC2)c1
2. Cc1ccc(N2CCN(S(=O)(=O)c3ccc(OC(C)(C)C(=O)O)cc3)CC2)c(C)c1

Reply:
1: < 4.00; 2: 4.00 to 6.00
